Test system: 653999-131-R-J2-PDC complex spheroids, growth % test/control
Assay: Anticancer human tumor 653999-131-R-J2-PDC patient-derived lung adenocarcinoma cell line growth inhibition [AhR]
Conditions: second compound 0.1 µM; first compound 10 µM; stronger effect = lower value
Lab note - cut at 30% for viability, T/C: true (1) if strictly below, false (0) if not.

Past entries and their recorded results:
molecule: COc1cc(C2c3cc4c(cc3C(OC3OC5COC(C)OC5C(O)C3O)C3COC(=O)C23)OCO4)cc(OC)c1O (stereo not given) + Cc1cncc(-c2nc(NCCc3c[nH]c4ccccc34)c3ncn(C(C)C)c3n2)c1
experimental.target: 653999-131-R-J2-PDC complex spheroids, growth % test/control
class.name: true (1)
//
molecule: COc1cccc2c1C(=O)c1c(O)c3c(c(O)c1C2=O)CC(O)(C(=O)CO)CC3OC1CC(N)C(O)C(C)O1 (stereo not given) + Cc1cncc(-c2nc(NCCc3c[nH]c4ccccc34)c3ncn(C(C)C)c3n2)c1
experimental.target: 653999-131-R-J2-PDC complex spheroids, growth % test/control
class.name: true (1)

Please determine if COc1ccc([C@@H](O)c2cc(-c3ncnc4cc(N5CCOCC5)ccc34)c(F)cc2Cl)nn1 + Cc1ccccc1N=Nc1ccc(NC(=O)c2ccnn2C)c(C)c1 is below 30% in terms of viability, T/C.
false (0)

Param item: COc1cc(C2c3cc4c(cc3C(OC3OC5COC(C)OC5C(O)C3O)C3COC(=O)C23)OCO4)cc(OC)c1O (stereo not given) + Cc1ccccc1N=Nc1ccc(NC(=O)c2ccnn2C)c(C)c1
true (1)

Check COc1cc(Nc2ncc3c(n2)-c2ccc(Cl)cc2C(c2c(F)cccc2OC)=NC3)ccc1C(=O)O + CC(CO)NC(=O)c1cc(-c2ccc(Cl)cc2)nn(-c2cnn(C)c2)c1=O too.
false (0)

----------
System: 653999-131-R-J2-PDC complex spheroids, growth % test/control
Experiment: Anticancer human tumor 653999-131-R-J2-PDC cell line growth inhibition [AhR];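 further: spheroids exposed to agents for seven days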;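 on viability, T/C: 100% = DMSO vehicle control viability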
Conditions: second compound 0.1 µM; first compound 10 µM; stronger effect = lower value
# note: exactly 50% is not below, so it is rule not met; use rule met for viability, T/C strictly under it

Lab note: confirm whether the reported viability, T/C for this compound is below 50%, equality not counting. compound: Nc1ccccc1NC(=O)c1ccc(CNC(=O)OCc2cccnc2)cc1 + Cc1ccccc1N=Nc1ccc(NC(=O)c2ccnn2C)c(C)c1
rule met

Check CC(C)c1c(-c2ccccc2)nc2c(C#N)c[nH]n2c1=O + Cc1ccccc1N=Nc1ccc(NC(=O)c2ccnn2C)c(C)c1 too.
rule not met

Cool, now CC1(C)CCC(CN2CCN(c3ccc(C(=O)NS(=O)(=O)c4ccc(NCC5CCOCC5)c([N+](=O)[O-])c4)c(Oc4cnc5[nH]ccc5c4)c3)CC2)=C(c2ccc(Cl)cc2)C1 + Cc1cncc(-c2nc(NCCc3c[nH]c4ccccc34)c3ncn(C(C)C)c3n2)c1
rule not met

----------
Tested on: 653999-131-R-J2-PDC complex spheroids, growth % test/control
Test: Anticancer human tumor 653999-131-R-J2-PDC cell line growth inhibition [AhR];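 further: spheroids exposed to agents for seven days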
Conditions: curve of first compound; second compound 10 µM
Record form. Attribute: IC50. Fill in for each entry.

Solved cases (5 shown):
compound: Nc1ccn(C2OC(CO)C(O)C2(F)F)c(=O)n1 (stereo unspecified) + CC(CO)NC(=O)c1cc(-c2ccc(Cl)cc2)nn(-c2cnn(C)c2)c1=O
IC50: 6310 nM
--
compound: COc1cccc2c1C(=O)c1c(O)c3c(c(O)c1C2=O)CC(O)(C(=O)CO)CC3OC1CC(N)C(O)C(C)O1 (stereo unspecified) + CC(CO)NC(=O)c1cc(-c2ccc(Cl)cc2)nn(-c2cnn(C)c2)c1=O
IC50: 131 nM
--
compound: Nc1ncn(C2CC(O)C(CO)O2)c(=O)n1 (stereo unspecified) + Cc1ccccc1N=Nc1ccc(NC(=O)c2ccnn2C)c(C)c1
IC50: > 1000 nM
--
compound: CC1(C)CCC(CN2CCN(c3ccc(C(=O)NS(=O)(=O)c4ccc(NCC5CCOCC5)c([N+](=O)[O-])c4)c(Oc4cnc5[nH]ccc5c4)c3)CC2)=C(c2ccc(Cl)cc2)C1 + CC(CO)NC(=O)c1cc(-c2ccc(Cl)cc2)nn(-c2cnn(C)c2)c1=O
IC50: > 10000 nM
--
compound: CC1COCCN1c1cc(-c2ccnn2C)c2ccnc(-c3ccn[nH]3)c2n1 (stereo unspecified) + Cc1ccccc1N=Nc1ccc(NC(=O)c2ccnn2C)c(C)c1
IC50: 233 nM

// next entry
Could you share which IC50 value was measured for CC(C)CC(NC(=O)C(Cc1ccccc1)NC(=O)c1cnccn1)B(O)O (stereo unspecified) + CC(CO)NC(=O)c1cc(-c2ccc(Cl)cc2)nn(-c2cnn(C)c2)c1=O ?
16.4 nM

----------
Please respond with reported viability, T/C for every item in the list.
Tested on: 653999-131-R-J2-PDC complex spheroids, growth % test/control
Experiment: Anticancer human tumor 653999-131-R-J2-PDC cell line growth inhibition [AhR];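 further: spheroids exposed to agents for seven days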;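 on viability, T/C: 100% = DMSO vehicle control viability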
Conditions: second compound 10 µM; first compound 0.0316 µM; stronger effect = lower value
One number for each entry, in %.

Please review the following examples before continuing.
compound: CC1(C)CCC(CN2CCN(c3ccc(C(=O)NS(=O)(=O)c4ccc(NCC5CCOCC5)c([N+](=O)[O-])c4)c(Oc4cnc5[nH]ccc5c4)c3)CC2)=C(c2ccc(Cl)cc2)C1 + Cc1ccccc1N=Nc1ccc(NC(=O)c2ccnn2C)c(C)c1
viability, T/C (%): 84
//
compound: Cn1ncnc1C1c2n[nH]c(=O)c3cc(F)cc(c23)NC1c1ccc(F)cc1 (stereo not drawn) + Cc1ccccc1N=Nc1ccc(NC(=O)c2ccnn2C)c(C)c1
viability, T/C (%): 109
//
compound: CC1(C)CCC(CN2CCN(c3ccc(C(=O)NS(=O)(=O)c4ccc(NCC5CCOCC5)c([N+](=O)[O-])c4)c(Oc4cnc5[nH]ccc5c4)c3)CC2)=C(c2ccc(Cl)cc2)C1 + CC(CO)NC(=O)c1cc(-c2ccc(Cl)cc2)nn(-c2cnn(C)c2)c1=O
viability, T/C (%): 99
//
compound: CC(C)c1c(-c2ccccc2)nc2c(C#N)c[nH]n2c1=O + Cc1cncc(-c2nc(NCCc3c[nH]c4ccccc34)c3ncn(C(C)C)c3n2)c1
viability, T/C (%): 63.2
//
compound: COc1cc(Nc2ncc3c(n2)-c2ccc(Cl)cc2C(c2c(F)cccc2OC)=NC3)ccc1C(=O)O + CC(CO)NC(=O)c1cc(-c2ccc(Cl)cc2)nn(-c2cnn(C)c2)c1=O
viability, T/C (%): 92.8
//
compound: COc1cc(C2c3cc4c(cc3C(OC3OC5COC(C)OC5C(O)C3O)C3COC(=O)C23)OCO4)cc(OC)c1O (stereo not drawn) + Cc1cncc(-c2nc(NCCc3c[nH]c4ccccc34)c3ncn(C(C)C)c3n2)c1
viability, T/C (%): 50.2
//
compound: O=C(c1cc(Cc2n[nH]c(=O)c3ccccc23)ccc1F)N1CCN(C(=O)C2CC2)CC1 + Cc1cncc(-c2nc(NCCc3c[nH]c4ccccc34)c3ncn(C(C)C)c3n2)c1
viability, T/C (%): 61.2
//
compound: Nc1ncn(C2CC(O)C(CO)O2)c(=O)n1 (stereo not drawn) + Cc1ccccc1N=Nc1ccc(NC(=O)c2ccnn2C)c(C)c1
viability, T/C (%): 82.7
//
compound: NS(=O)(=O)OCC1CC(n2ccc3c(NC4CCc5ccccc54)ncnc32)CC1O (stereo not drawn) + Cc1cncc(-c2nc(NCCc3c[nH]c4ccccc34)c3ncn(C(C)C)c3n2)c1
viability, T/C (%): 44.4
//
compound: Nc1ccn(C2OC(CO)C(O)C2(F)F)c(=O)n1 (stereo not drawn) + Cc1cncc(-c2nc(NCCc3c[nH]c4ccccc34)c3ncn(C(C)C)c3n2)c1
viability, T/C (%): 61

Need viability, T/C for each of these compounds.
1. Cn1ncnc1C1c2n[nH]c(=O)c3cc(F)cc(c23)NC1c1ccc(F)cc1 (stereo not drawn) + CC(CO)NC(=O)c1cc(-c2ccc(Cl)cc2)nn(-c2cnn(C)c2)c1=O
2. CC(C)c1c(-c2ccccc2)nc2c(C#N)c[nH]n2c1=O + CC(CO)NC(=O)c1cc(-c2ccc(Cl)cc2)nn(-c2cnn(C)c2)c1=O
3. COc1ccc([C@@H](O)c2cc(-c3ncnc4cc(N5CCOCC5)ccc34)c(F)cc2Cl)nn1 + CC(CO)NC(=O)c1cc(-c2ccc(Cl)cc2)nn(-c2cnn(C)c2)c1=O

94.8
104
90

----------
Tested on: 653999-131-R-J2-PDC complex spheroids, growth % test/control
Assay: Anticancer human tumor 653999-131-R-J2-PDC cell line growth inhibition [AhR];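 further: spheroids exposed to agents for seven days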;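 on viability, T/C: 100% = DMSO vehicle control viability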
Details: second compound 0.1 µM; first compound 0.0949 µM; stronger effect = lower value
Provide the reported viability, T/C of each item.

molecule: CCN(c1cc(-c2ccc(CN3CCOCC3)cc2)cc(C(=O)NCc2c(C)cc(C)[nH]c2=O)c1C)C1CCOCC1 + CC(CO)NC(=O)c1cc(-c2ccc(Cl)cc2)nn(-c2cnn(C)c2)c1=O
readout.value: 120%

molecule: Nc1ncn(C2CC(O)C(CO)S2)c(=O)n1 (stereo not drawn) + Cc1cncc(-c2nc(NCCc3c[nH]c4ccccc34)c3ncn(C(C)C)c3n2)c1
readout.value: 93.2%

Entry CCN(c1cc(-c2ccc(CN3CCOCC3)cc2)cc(C(=O)NCc2c(C)cc(C)[nH]c2=O)c1C)C1CCOCC1 + Cc1ccccc1N=Nc1ccc(NC(=O)c2ccnn2C)c(C)c1 has what viability, T/C?
97.9%
